Target: PI3Kα E545K (Homo sapiens, UniProt P42336, E545K)
Sequence (P42336 whole entry E545K, one chain of several): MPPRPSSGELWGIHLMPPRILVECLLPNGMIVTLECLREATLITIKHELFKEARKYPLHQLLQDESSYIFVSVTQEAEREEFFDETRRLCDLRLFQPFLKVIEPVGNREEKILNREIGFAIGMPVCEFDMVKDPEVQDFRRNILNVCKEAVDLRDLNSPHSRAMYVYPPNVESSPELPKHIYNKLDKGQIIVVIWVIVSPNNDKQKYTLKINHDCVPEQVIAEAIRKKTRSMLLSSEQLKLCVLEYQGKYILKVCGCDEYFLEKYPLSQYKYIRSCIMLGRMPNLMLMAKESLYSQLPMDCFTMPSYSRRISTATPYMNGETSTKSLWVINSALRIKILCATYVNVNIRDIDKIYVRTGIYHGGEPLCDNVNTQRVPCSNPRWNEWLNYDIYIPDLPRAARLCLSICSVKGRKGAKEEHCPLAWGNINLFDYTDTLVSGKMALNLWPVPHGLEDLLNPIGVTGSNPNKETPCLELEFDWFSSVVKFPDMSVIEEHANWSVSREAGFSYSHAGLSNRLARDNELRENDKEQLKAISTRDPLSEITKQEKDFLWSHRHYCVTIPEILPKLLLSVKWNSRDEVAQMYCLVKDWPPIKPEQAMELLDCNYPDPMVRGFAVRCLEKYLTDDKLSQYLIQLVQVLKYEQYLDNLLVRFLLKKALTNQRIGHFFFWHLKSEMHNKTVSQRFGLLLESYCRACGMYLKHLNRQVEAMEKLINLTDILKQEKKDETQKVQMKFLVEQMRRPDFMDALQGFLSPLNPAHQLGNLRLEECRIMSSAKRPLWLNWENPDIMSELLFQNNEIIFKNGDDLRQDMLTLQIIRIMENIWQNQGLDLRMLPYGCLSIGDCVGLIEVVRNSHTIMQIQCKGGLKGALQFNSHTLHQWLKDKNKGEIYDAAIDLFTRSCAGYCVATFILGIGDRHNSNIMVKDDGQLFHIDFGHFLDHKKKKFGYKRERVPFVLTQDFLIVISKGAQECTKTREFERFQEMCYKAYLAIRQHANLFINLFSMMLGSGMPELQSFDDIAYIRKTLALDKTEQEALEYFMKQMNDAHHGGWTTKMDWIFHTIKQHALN
Test: PI3Kα E545K mutant in vitro cell based assay, MDA-MB-361 cells
Set-up: MDA-MB-361 (ATCC-HTB-27) cell line (PI3Kα E545K); host or cells: MDA-MB-361
Settings: MDA-MB-361 cell line, 0% FBS, no insulin, 3 hours treatment
measure name: IC50

Worked examples, 2 molecules total:
Cc1cc([C@@H](C)Oc2ccc(Cl)nc2S(N)(=O)=O)c2oc(-c3cnn(CCO)c3)c(C)c(=O)c2c1 [Example 61A]: < 500 nM
Cc1cc([C@@H](C)Oc2ccc(Cl)nc2S(N)(=O)=O)c2oc(C3CC3CO)c(C)c(=O)c2c1 (single isomer, unassigned) [Example 126C]: < 500 nM

Here's the next entry for you.
Ask | Tell me the measured IC50 of Cc1cc([C@@H](C)Oc2ccc(Cl)nc2C(N)=O)c2oc(-c3cnn(C4CC4)c3)c(C)c(=O)c2c1 [Example 51A] , please.
Reply | < 500 nM

* * *

molecules and their reported IC50
Biological target: PI3Kα E545K (Homo sapiens, UniProt P42336, E545K)
Experiment: PI3Kα E545K mutant in vitro cell based assay, MDA-MB-361 cells
Set-up: MDA-MB-361 (ATCC-HTB-27) cell line (PI3Kα E545K); host or cells: MDA-MB-361
Details: MDA-MB-361 cell line, 0% FBS, no insulin, 3 hours treatment

Worked examples, 2 molecules total:
Cc1cc([C@@H](C)Oc2ccc(Cl)nc2C(N)=O)c2oc(-c3ccc4nn(C)cc4c3)cc(=O)c2c1 [Example 52A]: < 500 nM
Cc1cc([C@@H](C)Oc2ccc(Cl)nc2S(N)(=O)=O)c2oc(-c3cnn(C[C@@H](C)O)c3)c(C)c(=O)c2c1: < 500 nM

Here's the next entry for you.
Ask | Tell me the measured IC50 of Cc1cc([C@@H](C)Oc2ccc(Cl)nc2C(N)=O)c2oc(-c3ccc4c(c3)OCCN4C)c(C)c(=O)c2c1 [Example 104A] , please.
Reply | < 500 nM

* * *

Target: PI3Kα H1047R (Homo sapiens, UniProt P42336, H1047R)
Construct: The MDA-MB-453 (ATCC-HTB-131) cell line (PI3Kα H1047R)
Sequence (P42336 whole entry H1047R): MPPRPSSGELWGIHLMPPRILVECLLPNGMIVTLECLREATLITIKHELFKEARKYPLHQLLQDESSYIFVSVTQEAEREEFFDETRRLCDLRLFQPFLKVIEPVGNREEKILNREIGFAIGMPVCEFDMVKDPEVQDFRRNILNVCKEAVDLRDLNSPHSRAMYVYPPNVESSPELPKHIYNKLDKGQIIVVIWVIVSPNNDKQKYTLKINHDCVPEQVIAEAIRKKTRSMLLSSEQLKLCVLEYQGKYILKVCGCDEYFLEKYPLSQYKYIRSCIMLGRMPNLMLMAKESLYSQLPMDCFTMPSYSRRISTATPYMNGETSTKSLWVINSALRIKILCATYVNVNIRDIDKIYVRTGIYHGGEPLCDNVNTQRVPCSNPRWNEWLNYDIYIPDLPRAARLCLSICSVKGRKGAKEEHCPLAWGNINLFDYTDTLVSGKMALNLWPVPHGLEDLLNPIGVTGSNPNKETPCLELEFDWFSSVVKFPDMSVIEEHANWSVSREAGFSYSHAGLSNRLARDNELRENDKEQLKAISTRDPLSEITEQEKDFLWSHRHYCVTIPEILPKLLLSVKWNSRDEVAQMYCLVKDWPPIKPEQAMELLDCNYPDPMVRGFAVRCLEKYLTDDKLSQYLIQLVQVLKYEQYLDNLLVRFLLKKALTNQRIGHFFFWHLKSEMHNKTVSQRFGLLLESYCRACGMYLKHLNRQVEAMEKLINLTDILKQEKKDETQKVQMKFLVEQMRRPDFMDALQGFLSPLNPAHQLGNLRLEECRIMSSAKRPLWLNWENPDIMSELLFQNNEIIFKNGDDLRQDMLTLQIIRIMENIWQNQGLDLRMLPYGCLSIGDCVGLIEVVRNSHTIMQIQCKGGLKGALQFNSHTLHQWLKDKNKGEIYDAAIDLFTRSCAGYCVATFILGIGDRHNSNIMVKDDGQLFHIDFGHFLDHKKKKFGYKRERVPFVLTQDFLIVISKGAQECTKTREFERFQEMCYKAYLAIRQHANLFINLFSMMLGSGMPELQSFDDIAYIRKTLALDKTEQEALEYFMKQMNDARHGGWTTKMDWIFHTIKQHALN
Sequence (P27986 whole entry partner): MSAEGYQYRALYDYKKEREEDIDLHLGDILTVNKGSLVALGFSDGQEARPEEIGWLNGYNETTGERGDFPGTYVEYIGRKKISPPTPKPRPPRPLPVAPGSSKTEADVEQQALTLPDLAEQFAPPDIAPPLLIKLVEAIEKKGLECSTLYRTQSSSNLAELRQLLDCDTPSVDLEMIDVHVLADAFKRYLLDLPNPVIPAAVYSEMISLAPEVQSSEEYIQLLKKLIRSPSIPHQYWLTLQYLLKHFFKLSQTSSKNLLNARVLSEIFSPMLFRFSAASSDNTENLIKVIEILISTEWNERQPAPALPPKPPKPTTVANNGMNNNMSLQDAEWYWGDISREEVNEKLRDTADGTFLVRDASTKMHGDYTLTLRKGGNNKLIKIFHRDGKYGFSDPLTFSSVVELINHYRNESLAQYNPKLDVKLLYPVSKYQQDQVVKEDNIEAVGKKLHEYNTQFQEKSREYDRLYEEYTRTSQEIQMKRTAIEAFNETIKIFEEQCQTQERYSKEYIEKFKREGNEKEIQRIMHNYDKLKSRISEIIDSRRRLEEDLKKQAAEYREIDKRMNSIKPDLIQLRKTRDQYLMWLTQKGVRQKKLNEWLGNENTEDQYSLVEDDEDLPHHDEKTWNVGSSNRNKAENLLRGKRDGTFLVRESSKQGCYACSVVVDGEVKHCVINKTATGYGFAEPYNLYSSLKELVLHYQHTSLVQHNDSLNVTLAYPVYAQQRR
Assay: PI3Kα H1047R mutant in vitro cell based assay, MDA-MB-453 cells (AlphaLisa SureFire)
Details: MDA-MB-453 cell line, 0% FBS, 3 hours treatment
measure name: IC50

Cc1cc([C@@H](C)Oc2ccc(Cl)nc2C)c2oc(-c3ccccc3)c(C)c(=O)c2c1: < 100 nM

Ask | Tell me the measured IC50 of `Cc1cc([C@@H](C)Oc2ccc(Cl)nc2-c2noc(=O)[nH]2)c2oc(-c3cnc4ccoc4c3)c(C)c(=O)c2c1` , please.
Reply | < 100 nM

Ask | Tell me the measured IC50 of CONC(=O)c1nc(Cl)ccc1O[C@H](C)c1cc(C)cc2c(=O)c(C)c(-c3ccc4nc(C)sc4c3)oc12 [Example 69C] , please.
Reply | < 100 nM

Ask | Tell me the measured IC50 of Cc1cc([C@@H](C)Oc2ccc(Cl)nc2S(N)(=O)=O)c2oc(-c3cnn(CCO)c3)c(C)c(=O)c2c1 [Example 61A] , please.
Reply | < 100 nM

Ask | Tell me the measured IC50 of Cc1cc([C@@H](C)Oc2ccc(Cl)nc2S(N)(=O)=O)c2oc(-c3cnc4nonc4c3)c(C)c(=O)c2c1 [Example 30C] , please.
Reply | < 100 nM

Ask | Tell me the measured IC50 of Cc1cc([C@@H](C)Oc2ccc(Cl)nc2C(N)=O)c2oc(-c3ccc4nc(C)cn4c3)c(C)c(=O)c2c1 [Example 57A] , please.
Reply | < 100 nM

Ask | Tell me the measured IC50 of Cc1cc([C@@H](C)Oc2ccc(Cl)nc2C(N)=O)c2oc(-c3cnn4c3OCCC4)c(C)c(=O)c2c1 [Example 108A] , please.
Reply | < 100 nM

Ask | Tell me the measured IC50 of Cc1cc([C@@H](C)Oc2ccc(Br)nc2C(N)=O)c2oc(-c3ccc4nn(C)cc4c3)c(C)c(=O)c2c1 [Example 81C] , please.
Reply | < 100 nM

Ask | Tell me the measured IC50 of Cc1cc([C@@H](C)Oc2ccc(Cl)nc2C(N)=O)c2oc(-c3cc(F)c4nc(C)cn4c3)c(C)c(=O)c2c1 [Example 38C] , please.
Reply | < 100 nM

Ask | Tell me the measured IC50 of Cc1cc([C@@H](C)Oc2ccc(Cl)nc2S(N)(=O)=O)c2oc(-c3ccc4nn(CCO)cc4c3)c(C)c(=O)c2c1 [Example 88C] , please.
Reply | < 100 nM

Ask | Tell me the measured IC50 of Cc1cc([C@@H](C)Oc2ccc(Cl)nc2C(N)=O)c2oc(-c3ccc4nn(CF)cc4c3)c(C)c(=O)c2c1 [Example 66C] , please.
Reply | < 100 nM

Ask | Tell me the measured IC50 of `Cc1cc([C@@H](C)Oc2ccc(Cl)nc2-c2noc(=O)[nH]2)c2oc(-c3ccccc3)c(C)c(=O)c2c1` , please.
Reply | < 100 nM

Ask | Tell me the measured IC50 of Cc1cc([C@@H](C)Oc2ccc(Cl)nc2C(N)=O)c2oc(-c3ccc4nn(C)cc4c3)cc(=O)c2c1 [Example 52A] , please.
Reply | < 100 nM

Ask | Tell me the measured IC50 of Cc1cc([C@@H](C)Oc2ccc(Cl)nc2S(N)(=O)=O)c2oc(-c3ccc(S(C)(=O)=O)cc3)c(C)c(=O)c2c1 [Example 31C] , please.
Reply | < 100 nM

Ask | Tell me the measured IC50 of Cc1cc([C@@H](C)Oc2ccc(Cl)nc2-c2noc(=O)[nH]2)c2oc(-c3cnc4c(c3)OCO4)c(C)c(=O)c2c1 [Example 39A] , please.
Reply | < 100 nM

Ask | Tell me the measured IC50 of Cc1cc([C@@H](C)Oc2ccc(Cl)nc2C(N)=O)c2oc(-c3cnc(C)s3)c(C)c(=O)c2c1 [Example 63C] , please.
Reply | < 100 nM

Ask | Tell me the measured IC50 of Cc1cc([C@@H](C)Oc2ccc(Cl)nc2-c2noc(=O)[nH]2)c2oc(-c3ccc4c(c3)OC(F)(F)O4)c(C)c(=O)c2c1 [Example 46A] , please.
Reply | < 100 nM

Ask | Tell me the measured IC50 of Cc1cc([C@@H](C)Oc2ccc(Cl)nc2C(N)=O)c2oc(-c3ccc4nc(C)oc4c3)c(C)c(=O)c2c1 [Example 53C] , please.
Reply | < 100 nM

Ask | Tell me the measured IC50 of Cc1cc([C@@H](C)Oc2ccc(Cl)nc2C(N)=O)c2oc(-c3cnn4c3CCC4)c(C)c(=O)c2c1 [Example 123A] , please.
Reply | < 100 nM

Ask | Tell me the measured IC50 of Cc1cc([C@@H](C)Oc2ccc(Cl)nc2S(N)(=O)=O)c2oc(-c3cnn(C)n3)c(C)c(=O)c2c1 [Example 35A] , please.
Reply | < 100 nM
